// provenance: PubChem BioAssay AID485297

procedure.text: qHTS Assay for Rab9 Promoter Activators; further: nearly all actives have a fitted effect of over 60% in size
test.conditions: Huh7 Rab9 promoter-luciferase reporter, luminescence, 24 h; series mostly up to 9.22 µM
Description: NIH Chemical Genomics Center [NCGC] NIH Molecular Libraries Probe Production centers Network [MLPCN] […] The Rab9 promoter is cloned in front of the luciferase reporter gene, therefore […] promoter activation results in luciferase expression. […] 7.Read using the luminescence protocol on the ViewLux plate reader (Perkin Elmer).
In all, about 320,000 compounds went through this assay and about 9,100 (2.8%) were called active. Not shown: some 3% with an inconclusive outcome. The call rests on the fitted dose curve; in most records, active means well fitted activation curve with a large enough effect; inconclusive means small, poorly fitted or top-dose-only effect; inactive means no such curve, though single readings can be large or run the other way. Shown is part of a subset that was picked to be rich in actives.
Classes used: active, inactive

# compound, group.label
rows = [
    ("CN(C)S(=O)(=O)c1cc(C(=O)Nc2ccn(C)n2)c(Cl)cc1Cl", "inactive"),
    ("N#CC1(NC(=O)COC(=O)CCN=C2NS(=O)(=O)c3ccccc32)CCCCC1", "inactive"),
    ("O=C(COC(=O)c1ccccc1Cl)NC1CCCCCCC1", "inactive"),
    ("COc1ccc(NS(=O)(=O)c2cc(NC(=O)COc3ccccc3F)ccc2OC)cc1", "inactive"),
    ("O=C(/C=C/c1ccco1)NC(=S)Nc1ccccc1Br", "inactive"),
    ("CCOc1ccc2nc(N(CCN(C)C)C(=O)c3ccc4ccccc4c3)sc2c1", "inactive"),
    ("Cc1nnc(NC(=O)/C=C/c2ccco2)s1", "inactive"),
    ("N#Cc1c(NC(=O)C2CCCO2)sc2c1CCCCC2 (stereo unspecified)", "active"),
    ("CN(CCOc1ccccc1)C(=O)c1cc(-c2ccco2)nc2ccccc12", "inactive"),
    ("O=C(/C=C/c1ccco1)Nc1ccc(Oc2ccccc2)cc1", "active"),
    ("O=S(=O)(c1ccc(Cl)cc1)c1nc(-c2ccccc2F)oc1NCCN1CCOCC1", "inactive"),
]
